biological target: Human Scribble (SCRIB) PDZ1 domain (728-815) (human, UniProt Q14160 728-815); experiment: ITC
Sequence (Q14160 728-815): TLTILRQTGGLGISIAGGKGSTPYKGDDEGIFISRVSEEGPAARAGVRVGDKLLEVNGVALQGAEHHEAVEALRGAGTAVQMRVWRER
pKd: −log10 of the molar value.
metricName: pKd

1. KHFRETEV [HTLV-1 Tax1 PBM peptide (KHFRETEV, residues 346-353)] = 5.11
